Tested on: P. falciparum parasites (W2 strain)
Test: Growth inhibition of cultured P. falciparum parasites (antiplasmodial activity)
Format: cell-based
Conditions: Plasmodium falciparum, Erythrocyte, in human red blood cells, 48 h incubation, flow cytometry, read-out: IC50 against cultured P. falciparum parasites
recorded.metric: IC50 (nM)

The following compounds have reported results that may help.
# compound, assay.target, test.value
rows = [
    ("O=C(O[C@@H]1CCC[C@]2(C1)OOC1(CC3CCC1CC3)O2)N1CCCCC1C(O)c1cc(C(F)(F)F)nc2c(C(F)(F)F)cccc12 (stereo partly shown)", "P. falciparum parasites (W2 strain)", 24),
    ("O=C(O[C@@H]1CCC[C@]2(C1)OOC1(O2)C2CCCC1CCC2)N1CCCCC1C(O)c1cc(C(F)(F)F)nc2c(C(F)(F)F)cccc12 (stereo partly shown)", "P. falciparum parasites (W2 strain)", 24),
]

a. O=C(O[C@@H]1CCC[C@]2(C1)OOC1(O2)C2CC3CC(C2)CC1C3)N1CCCCC1C(O)c1cc(C(F)(F)F)nc2c(C(F)(F)F)cccc12 (stereo partly shown) [6a, reference compound]
b. O=C(O[C@@H]1CCC[C@]2(C1)OOC1(CC3CCC1C3)O2)N1CCCCC1C(O)c1cc(C(F)(F)F)nc2c(C(F)(F)F)cccc12 (stereo partly shown)
Just tell me: smaller IC50 value, a or b ? Give the chosen item's label as your response.
a
